assay: Solubility in water and in water-ethanol mixtures; assay type: physicochemical; conditions: ethanol:water 30:70, organic solvent or mixture; read-out: Solubility in ethanol:water mixture (30:70)
metric: solubility (µg/mL)

{"compound": "COCCOCCOCc1cc(=O)oc2c3c4c(cc12)CCCN4CCC3 [Compound 7]", "metric": "solubility", "val": 3000}

* * *

Listed molecules paired with reported solubility
test: Solubility in water and in water-ethanol mixtures; assay type: physicochemical; details: water; read-out: Solubility in water

{"smiles-repr": "COCCOCCOCc1cc(=O)oc2cc(O)ccc12", "solubility": "1000 µg/mL"}
{"smiles-repr": "COCCOCCOCc1cc(=O)oc2c3c4c(cc12)CCCN4CCC3", "solubility": "200 µg/mL"}
